assay: Toxicity in ip dosed mouse; type: organism-based; conditions: in vivo
Reported Property: LD50 (mg/kg)
Dear colleague, please return just the value in mg/kg, with no unit written.

CCCCC1OC(=O)c2cc(F)ccc21 (stereo not drawn) | 593

Next, consider the following compound.
Qu. Entry CCCCC1OC(=O)c2ccccc21 (stereo not drawn) [RAC-3-N-BUTYLPHTHALIDE] : reported LD50 = ?
Ans. 751

Cited source for all entries: ChEMBL document CHEMBL1157855
